Source of measurements: patent US20210122739A1

Below: a set of entries, each annotated with reported pIC50.
# SYSTEM TESTED: NLRP3 (Homo sapiens)
# Sequence (Q96P20 whole entry): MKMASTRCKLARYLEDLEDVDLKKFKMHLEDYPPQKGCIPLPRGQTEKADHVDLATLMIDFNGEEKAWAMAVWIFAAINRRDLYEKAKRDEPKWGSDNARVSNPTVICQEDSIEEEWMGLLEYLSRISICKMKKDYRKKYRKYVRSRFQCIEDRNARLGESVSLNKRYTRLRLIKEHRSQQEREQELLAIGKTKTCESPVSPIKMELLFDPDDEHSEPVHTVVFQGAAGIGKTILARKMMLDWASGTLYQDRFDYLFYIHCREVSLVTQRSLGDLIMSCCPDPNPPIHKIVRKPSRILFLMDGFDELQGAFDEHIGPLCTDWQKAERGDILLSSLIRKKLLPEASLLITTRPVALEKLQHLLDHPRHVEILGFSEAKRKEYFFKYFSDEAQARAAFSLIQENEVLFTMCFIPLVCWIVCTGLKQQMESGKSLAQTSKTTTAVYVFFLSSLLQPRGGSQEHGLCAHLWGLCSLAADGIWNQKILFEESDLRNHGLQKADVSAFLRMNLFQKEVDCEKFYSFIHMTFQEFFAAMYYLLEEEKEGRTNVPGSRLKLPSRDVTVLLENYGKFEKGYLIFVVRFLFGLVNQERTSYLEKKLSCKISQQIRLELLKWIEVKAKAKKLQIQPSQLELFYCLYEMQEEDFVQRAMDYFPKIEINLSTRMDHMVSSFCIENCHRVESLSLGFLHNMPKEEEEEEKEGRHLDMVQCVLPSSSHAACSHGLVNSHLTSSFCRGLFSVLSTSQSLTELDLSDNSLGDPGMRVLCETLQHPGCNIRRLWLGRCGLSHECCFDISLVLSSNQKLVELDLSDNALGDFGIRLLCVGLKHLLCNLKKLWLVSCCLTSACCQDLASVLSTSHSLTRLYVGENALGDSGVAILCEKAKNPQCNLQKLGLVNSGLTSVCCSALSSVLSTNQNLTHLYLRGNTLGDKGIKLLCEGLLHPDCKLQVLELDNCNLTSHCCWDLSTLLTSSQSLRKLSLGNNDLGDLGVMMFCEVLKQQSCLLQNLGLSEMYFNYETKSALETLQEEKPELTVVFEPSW
# ASSAY PROTOCOL: THP-1 cells pyroptosis assay
# Type: cell-based
# Set-up: Seed THP-1 cells (25,000 cells/well) containing 1.0 μg/ml LPS; host or cells: THP-1 cells, LPS-primed, nigericin-stimulated
# SETUP CONDITIONS: 1.0 μg/ml LPS, nigericin 5 μM, resazurin readout
pIC50: −log10 of the molar value.

- MOLECULE: "CC(=O)N(C)CCN(C)C(=O)c1cc(S(=O)(=O)NC(=O)Nc2c3c(cc4c2CCC4)CCC3)nn1C [Example 12]"
  SYSTEM TESTED: "NLRP3 (Homo sapiens)"
  pIC50: "5.00 to 5.59"
- MOLECULE: "COCCN(C)C(=O)c1cc(S(=O)(=O)NC(=O)Nc2c(C(C)C)cccc2C(C)C)nn1C [Example 22]"
  SYSTEM TESTED: "NLRP3 (Homo sapiens)"
  pIC50: "5.00 to 5.59"
- MOLECULE: "CN(C(=O)c1cc(S(=O)(=O)NC(=O)Nc2c3c(cc4c2CCC4)CCC3)nn1C)C1CCOCC1 [Example 14]"
  SYSTEM TESTED: "NLRP3 (Homo sapiens)"
  pIC50: "5.00 to 5.59"
- MOLECULE: "CC(C)n1nc(S(=O)(=O)NC(=O)Nc2c3c(cc4c2CCC4)CCC3)cc1C(=O)N1CCC1 [Example 31]"
  SYSTEM TESTED: "NLRP3 (Homo sapiens)"
  pIC50: "6.80 to 7.40"

Note: attention shifts to another entry.
Lab book: pIC50 of CC(C)Oc1cc(-c2cc(F)cc(C(C)C)c2NC(=O)NS(=O)(=O)c2cc(C(=O)N(C)C)n(C)n2)ccn1 [Example 81] noted as 6.19 to 6.80
